- Organism: Rattus norvegicus
- Experiment description: Open TG-GATES - Regimen: Daily Repeat
- Type: toxicity, organism-based, Sprague-Dawley
- Parameters: regimen Daily Repeat, gender Male, age 6 weeks
- Recorded conditions: in vivo, po, 0 mg/kg, […], tissue Plasma, route gavage, dose level Control, time 28 day
Below, each entry is listed alongside its reported TBIL.
Measurement name: TBIL (mg/dL)

> print(dat)
                                    molecule  unit.info  endpoint.value
 1     CCCCC1C(=O)N(c2ccccc2)N(c2ccccc2)C1=O      mg/dL             0.3
 2  COc1ccc([C@@H]2Sc3ccccc3N(CCN(C)C)C(=O)[C@@H]2OC(C)=O)cc1      mg/dL           0.028
 3                   Nc1ccc(Cc2ccc(N)cc2)cc1      mg/dL           0.058
 4                          O=c1ccc2ccccc2o1      mg/dL             0.3
 5      CN(C/C=C/C#CC(C)(C)C)Cc1cccc2ccccc12      mg/dL             0.2
 6                CCN(CC)C(=S)SSC(=S)N(CC)CC      mg/dL           0.014
 7  CC(=O)[C@@]1(O)CC[C@H]2[C@@H]3C=C(Cl)C4=CC(=O)CC[C@]4(C)[C@H]3CC[C@@]21C      mg/dL            0.01
 8  CN(CCOc1ccc(CC2SC(=O)NC2=O)cc1)c1ccccn1.O=C(O)/C=C\C(=O)O (stereo not drawn) [ROSIGLITAZONE MALEATE]      mg/dL           0.036
 9  CCCCNC(=O)NS(=O)(=O)c1ccc(C)cc1 [TOLBUTAMIDE]      mg/dL           0.062
10                   O=C(O)c1ccccc1Nc1ccccc1      mg/dL            0.05
11     CC(S)C(=O)NCC(=O)O (stereo not drawn)      mg/dL            0.01
12                                       CCO      mg/dL             0.2
13  NS(=O)(=O)c1cc(C(=O)O)c(NCc2ccco2)cc1Cl [FUROSEMIDE]      mg/dL           0.048

* * *

- Species on record: Rattus norvegicus
- Experiment description: Open TG-GATES - Regimen: Daily Repeat
- Assay type: toxicity, organism-based, Sprague-Dawley
- Parameters: regimen Daily Repeat, gender Male, age 6 weeks
- Recorded conditions: in vivo, po, 100 mg/kg, […], tissue Kidney, route gavage, dose level Low, time 7 day
Measurement name: KIDNEY_L (g)

> print(dat)
                                   compound  measurement.name  endpoint.value
1  CC(=O)[C@@]1(O)CC[C@H]2[C@@H]3C=C(Cl)C4=CC(=O)CC[C@]4(C)[C@H]3CC[C@@]21C          KIDNEY_L             1.1
2    CC(S)C(=O)NCC(=O)O (centres undefined)          KIDNEY_L             1.1
3  CCCCNC(=O)NS(=O)(=O)c1ccc(C)cc1 [TOLBUTAMIDE]          KIDNEY_L             1.2
4                   O=C(O)c1ccccc1Nc1ccccc1          KIDNEY_L             1.2

* * *

- Organism: Rattus norvegicus
- Experiment description: Open TG-GATES - Regimen: Single
- Assay type: toxicity, organism-based, Sprague-Dawley
- Design: regimen Single, gender Male, age 6 weeks
- Recorded conditions: in vivo, po, 0 mg/kg, 24 h, tissue Plasma, route gavage, dose level Control
Please note: Satisfied applies when IP is 8 mg/dL or greater, and Not satisfied applies otherwise.

> print(dat)
                                    compound  qualitative.label
 1  CN(C)CCCN1c2ccccc2Sc2ccc(Cl)cc21 [CHLORPROMAZINE]      Not satisfied
 2  NS(=O)(=O)c1cc(C(=O)O)c(NCc2ccco2)cc1Cl [FUROSEMIDE]          Satisfied
 3  CC(=O)[C@@]1(O)CC[C@H]2[C@@H]3C=C(Cl)C4=CC(=O)CC[C@]4(C)[C@H]3CC[C@@]21C [CHLORMADINONE]      Not satisfied
 4  CC(S)C(=O)NCC(=O)O (centres undefined) [TIOPRONIN]      Not satisfied
 5                   Nc1ccc(Cc2ccc(N)cc2)cc1      Not satisfied
 6  COc1cc2ncnc(Nc3ccc(F)c(Cl)c3)c2cc1OCCCN1CCOCC1 [GEFITINIB]      Not satisfied
 7  CN(CCOc1ccc(CC2SC(=O)NC2=O)cc1)c1ccccn1.O=C(O)/C=C\C(=O)O (centres undefined) [ROSIGLITAZONE MALEATE]      Not satisfied
 8                             CCO [ALCOHOL]          Satisfied
 9  CN(C/C=C/C#CC(C)(C)C)Cc1cccc2ccccc12 [TERBINAFINE]      Not satisfied
10  CCCCNC(=O)NS(=O)(=O)c1ccc(C)cc1 [TOLBUTAMIDE]          Satisfied

* * *

- Species on record: Rattus norvegicus
- Experiment description: Open TG-GATES - Regimen: Daily Repeat
- Type: toxicity, organism-based, Sprague-Dawley
- Parameters: regimen Daily Repeat, gender Male, age 6 weeks
- Recorded conditions: in vivo, po, 1000 mg/kg, […], tissue Blood, route gavage, dose level High, time 7 day
Measurement name: MCV (fL)

> print(dat)
                                   compound  unit.info  endpoint.value
1  CCCCNC(=O)NS(=O)(=O)c1ccc(C)cc1 [TOLBUTAMIDE]         fL            61.9
2  CC(=O)[C@@]1(O)CC[C@H]2[C@@H]3C=C(Cl)C4=CC(=O)CC[C@]4(C)[C@H]3CC[C@@]21C         fL            59.5
3    CC(S)C(=O)NCC(=O)O (centres undefined)         fL            63.3
4                   O=C(O)c1ccccc1Nc1ccccc1         fL            60.2

* * *

- Species: Rattus norvegicus
- Experiment description: Open TG-GATES - Regimen: Single
- Type: toxicity, organism-based, Sprague-Dawley
- Design: regimen Single, gender Male, age 6 weeks
- Recorded conditions: in vivo, po, 0 mg/kg, 9 h, tissue Blood, route gavage, dose level Control
Measurement name: Mono (%)

> print(dat)
                                   molecule  endpoint.value
1  COc1ccc([C@@H]2Sc3ccccc3N(CCN(C)C)C(=O)[C@@H]2OC(C)=O)cc1 [DILTIAZEM]             2.4
2    O=C(O)c1ccccc1Nc1ccccc1 [FENAMIC ACID]             1.8
3               O=c1ccc2ccccc2o1 [COUMARIN]             6.4
4  CC(=O)[C@@]1(O)CC[C@H]2[C@@H]3C=C(Cl)C4=CC(=O)CC[C@]4(C)[C@H]3CC[C@@]21C [CHLORMADINONE]             2.6
5                             CCO [ALCOHOL]             9.2
6                   Nc1ccc(Cc2ccc(N)cc2)cc1             1.8
7  C=C[C@H]1C[N@@]2CC[C@H]1C[C@@H]2[C@@H](O)c1ccnc2ccc(OC)cc12 [QUINIDINE]               2
8  CN(C/C=C/C#CC(C)(C)C)Cc1cccc2ccccc12 [TERBINAFINE]             1.8
9  CN(CCOc1ccc(CC2SC(=O)NC2=O)cc1)c1ccccn1.O=C(O)/C=C\C(=O)O (centres undefined) [ROSIGLITAZONE MALEATE]             7.8

* * *

- Species: Rattus norvegicus
- Experiment description: Open TG-GATES - Regimen: Daily Repeat
- Type: toxicity, organism-based, Sprague-Dawley
- Set-up: regimen Daily Repeat, gender Male, age 6 weeks
- Recorded conditions: in vivo, po, 0 mg/kg, 72 h, tissue Plasma, route gavage, dose level Control, time 3 day
Threshold-based label: IP under 8 mg/dL gives Criterion met, IP not under 8 mg/dL gives Criterion not met.

> print(dat)
                                    molecule  qualitative.label
 1  CCCCC1C(=O)N(c2ccccc2)N(c2ccccc2)C1=O [PHENYLBUTAZONE]  Criterion not met
 2  NS(=O)(=O)c1cc(C(=O)O)c(NCc2ccco2)cc1Cl [FUROSEMIDE]      Criterion met
 3  CN(C/C=C/C#CC(C)(C)C)Cc1cccc2ccccc12 [TERBINAFINE]      Criterion met
 4                             CCO [ALCOHOL]  Criterion not met
 5  COc1ccc([C@@H]2Sc3ccccc3N(CCN(C)C)C(=O)[C@@H]2OC(C)=O)cc1 [DILTIAZEM]      Criterion met
 6  CCCCNC(=O)NS(=O)(=O)c1ccc(C)cc1 [TOLBUTAMIDE]  Criterion not met
 7  CC(S)C(=O)NCC(=O)O (stereo not drawn) [TIOPRONIN]      Criterion met
 8                   Nc1ccc(Cc2ccc(N)cc2)cc1      Criterion met
 9  CC(=O)[C@@]1(O)CC[C@H]2[C@@H]3C=C(Cl)C4=CC(=O)CC[C@]4(C)[C@H]3CC[C@@]21C [CHLORMADINONE]      Criterion met
10  CN(CCOc1ccc(CC2SC(=O)NC2=O)cc1)c1ccccn1.O=C(O)/C=C\C(=O)O (stereo not drawn) [ROSIGLITAZONE MALEATE]      Criterion met
11    O=C(O)c1ccccc1Nc1ccccc1 [FENAMIC ACID]      Criterion met

Entry source: ChEMBL document CHEMBL3885861
